- Test: Plasma exposure and half-life in MPTP-lesioned macaques
- Format: in vivo, cynomolgus macaque
- Condition Details: cynomolgus monkey, plasma, oral; 10 mg/kg p.o.; 2 h post-dose
Observation Type: concentration at 2 h
Give the number first and the unit second.

### Prompt Given the molecule NC12CC3CC(CC(C3)C1)C2 [Amantadine, amantadine, reference compound] , what is its reported concentration at 2 h?
### Response 1300 ng/mL
